System: Saccharomyces cerevisiae
Assay: protein stability index of tFT-peptide fusion (C-terminal peptide) (PSI (0-1 scale)); higher = more stable (slower turnover)
Settings: genetic background: wild type; temperature: 37 C
Value type: protein stability index

> print(dat)
   polymer.sequence               value.type  numeric.value
1      WLVIWPRKLSTV  protein stability index          0.573
2      PPPPPLAIPHPT  protein stability index          0.714
3      VVPVGLYSVILV  protein stability index          0.451

----------
System: Saccharomyces cerevisiae;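 further: PSI is a weighted mean of sequencing reads over stability bins, variants kept only with over 10 reads, mCherry proximal and sfGFP distal, peptide attached via GGGS linker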
Test: protein stability index of tFT-peptide fusion (C-terminal peptide) (PSI (0-1 scale)); higher = more stable (slower turnover)
Settings: genetic background: doa10 deletion; temperature: 30 C
Label FALSE if protein stability index falls below 0.2; label TRUE in every other case.

> print(dat)
   polymer.sequence               target.desc  label.class
1      FYSLVQAWSKAP  Saccharomyces cerevisiae         TRUE
2      LCSYSTIPLRLY  Saccharomyces cerevisiae        FALSE
3      LVFGFSLILRVG  Saccharomyces cerevisiae        FALSE
4      ARCKRSLSGGIG  Saccharomyces cerevisiae         TRUE
5      VLAFFPLFFFLS  Saccharomyces cerevisiae        FALSE
6      LSAVISLRIQLS  Saccharomyces cerevisiae         TRUE
7      FSLLFVRFCFFL  Saccharomyces cerevisiae         TRUE
8      PPRSRPLLRPLP  Saccharomyces cerevisiae         TRUE
9      SLVLLLLITFSL  Saccharomyces cerevisiae         TRUE
